Value source: ChEMBL document CHEMBL1154735

# Test system: Rattus norvegicus
# Protocol Description: Total plasma concentration in Sprague-Dawley rat at 1.8 mg/kg, po after 1 to 3 hrs by LC/MS/MS analysis
# Assay type: ADME, organism-based
# Parameters: dose 1.8 mg/kg, route oral
# Condition Details: in vivo

Query Smiles: COC[C@H](C1CC1)n1cc(C#N)nc(Nc2cc(C)c(OC(F)F)nc2C)c1=O
Unit Abbreviation: nM
concentration: 83

---

# Protocol Description: Metabolic stability in NADPH-fortified human liver microsomes assessed as parent compound remaining at 10 uM after 30 mins by HPLC/UV/MS analysis
# Type: ADME, Microsome
# Condition Details: read-out: Stability

Query Smiles: Cc1cc(Nc2nc(C#N)cn([C@H](C)C3CC3)c2=O)c(C)nc1OC(F)F
remaining at 0.5 h, 10 µM (%): 88
//
Query Smiles: C[C@@H](C1CC1)n1cc(Cl)nc(Nc2c(Cl)cc(OC(F)F)cc2Cl)c1=O
remaining at 0.5 h, 10 µM (%): 85
//
Query Smiles: COC[C@H](C1CC1)n1cc(Cl)nc(Nc2cc(C)c(OC(F)F)nc2C)c1=O
remaining at 0.5 h, 10 µM (%): 75
//
Query Smiles: COC[C@H](C1CC1)n1cc(C#N)nc(Nc2cc(C)c(OC(F)F)nc2C)c1=O
remaining at 0.5 h, 10 µM (%): 56

---

# Protocol Description: Solubility in simulated gastric fluid
# Format: physicochemical

Query Smiles: COC[C@H](C1CC1)n1cc(C#N)nc(Nc2cc(C)c(OC(F)F)nc2C)c1=O
solubility [µg/mL]: 15

---

# Protocol Description: Oral bioavailability in Sprague-Dawley rat at 10 mg/kg dosed as aqueous suspension of 1% polysorbate 80 in 0.5% methylcellulose after 0.25 to 24 hrs by LC/MS/MS analysis
# Format: ADME, organism-based
# Condition Details: in vivo
The following compounds are shown together with reported bioavailability values.
Quantity: bioavailability (%)

Query Smiles: COC[C@H](C1CC1)n1cc(Cl)nc(Nc2cc(C)c(OC(F)F)nc2C)c1=O
Recorded Value: 66
//
Query Smiles: COC[C@H](C1CC1)n1cc(Cl)nc(Nc2cc(C)c(OC)nc2C)c1=O
Recorded Value: 11
//
Query Smiles: COC[C@H](C1CC1)n1cc(C#N)nc(Nc2cc(C)c(OC(F)F)nc2C)c1=O
Recorded Value: 31
//
Query Smiles: Cc1cc(Nc2nc(C#N)cn([C@H](C)C3CC3)c2=O)c(C)nc1OC(F)F
Recorded Value: 38
//
Query Smiles: CC[C@H](C1CC1)n1cc(C#N)nc(Nc2cc(C)c(OC)nc2C)c1=O
Recorded Value: 3

---

The following compounds are shown together with reported log10(AUC) values.
# Protocol Description: AUC in Sprague-Dawley rat at 10 mg/kg, po dosed as aqueous suspension of 1% polysorbate 80 in 0.5% methylcellulose after 0.25 to 24 hrs by LC/MS/MS analysis
# Assay type: ADME, organism-based
# Parameters: time upper 24 hr, time lower 0.25 hr, dose 10 mg/kg, route oral
# Condition Details: in vivo
Quantity: log10(AUC) (log10 of the value in µM·h)

Query Smiles: Cc1cc(Nc2nc(C#N)cn([C@H](C)C3CC3)c2=O)c(C)nc1OC(F)F
Recorded Value: 0.66
//
Query Smiles: COC[C@H](C1CC1)n1cc(Cl)nc(Nc2cc(C)c(OC)nc2C)c1=O
Recorded Value: 0.11
//
Query Smiles: COC[C@H](C1CC1)n1cc(Cl)nc(Nc2cc(C)c(OC(F)F)nc2C)c1=O
Recorded Value: 0.85
//
Query Smiles: CC[C@H](C1CC1)n1cc(C#N)nc(Nc2cc(C)c(OC)nc2C)c1=O
Recorded Value: -0.62
//
Query Smiles: COC[C@H](C1CC1)n1cc(C#N)nc(Nc2cc(C)c(OC(F)F)nc2C)c1=O
Recorded Value: 0.61
